- Experimental Target: T1, integrin αVβ3 (UniProt P06756 31-992; P05106 27-718)
- T1 construct: Coated on the ELISA plate
- T1 sequence (P06756 31-992, chain 1 of 2): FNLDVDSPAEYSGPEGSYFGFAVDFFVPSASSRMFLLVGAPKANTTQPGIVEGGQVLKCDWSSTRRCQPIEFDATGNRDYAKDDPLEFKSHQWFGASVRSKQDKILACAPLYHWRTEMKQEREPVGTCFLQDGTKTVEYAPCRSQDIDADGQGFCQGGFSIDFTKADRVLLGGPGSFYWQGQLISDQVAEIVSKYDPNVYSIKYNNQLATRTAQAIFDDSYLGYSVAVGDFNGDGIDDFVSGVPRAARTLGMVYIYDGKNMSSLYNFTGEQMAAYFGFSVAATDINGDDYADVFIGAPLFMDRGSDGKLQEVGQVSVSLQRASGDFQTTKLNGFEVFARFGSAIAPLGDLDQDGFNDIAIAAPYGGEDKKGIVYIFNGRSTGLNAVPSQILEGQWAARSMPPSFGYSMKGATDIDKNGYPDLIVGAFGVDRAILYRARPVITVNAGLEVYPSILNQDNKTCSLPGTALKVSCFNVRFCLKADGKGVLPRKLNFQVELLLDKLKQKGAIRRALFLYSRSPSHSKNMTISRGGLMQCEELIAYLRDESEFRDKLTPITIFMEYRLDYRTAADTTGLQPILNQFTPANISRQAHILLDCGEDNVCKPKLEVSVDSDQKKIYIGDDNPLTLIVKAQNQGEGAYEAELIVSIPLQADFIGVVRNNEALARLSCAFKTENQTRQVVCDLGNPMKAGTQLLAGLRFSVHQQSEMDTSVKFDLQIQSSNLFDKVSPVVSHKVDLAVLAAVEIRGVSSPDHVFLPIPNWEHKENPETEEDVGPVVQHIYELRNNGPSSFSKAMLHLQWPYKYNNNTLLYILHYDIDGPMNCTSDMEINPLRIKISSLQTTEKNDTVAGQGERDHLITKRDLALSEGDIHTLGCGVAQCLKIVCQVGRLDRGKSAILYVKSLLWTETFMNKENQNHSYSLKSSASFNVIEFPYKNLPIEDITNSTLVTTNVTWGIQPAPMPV
- T1 sequence (P05106 27-718, chain 2 of 2): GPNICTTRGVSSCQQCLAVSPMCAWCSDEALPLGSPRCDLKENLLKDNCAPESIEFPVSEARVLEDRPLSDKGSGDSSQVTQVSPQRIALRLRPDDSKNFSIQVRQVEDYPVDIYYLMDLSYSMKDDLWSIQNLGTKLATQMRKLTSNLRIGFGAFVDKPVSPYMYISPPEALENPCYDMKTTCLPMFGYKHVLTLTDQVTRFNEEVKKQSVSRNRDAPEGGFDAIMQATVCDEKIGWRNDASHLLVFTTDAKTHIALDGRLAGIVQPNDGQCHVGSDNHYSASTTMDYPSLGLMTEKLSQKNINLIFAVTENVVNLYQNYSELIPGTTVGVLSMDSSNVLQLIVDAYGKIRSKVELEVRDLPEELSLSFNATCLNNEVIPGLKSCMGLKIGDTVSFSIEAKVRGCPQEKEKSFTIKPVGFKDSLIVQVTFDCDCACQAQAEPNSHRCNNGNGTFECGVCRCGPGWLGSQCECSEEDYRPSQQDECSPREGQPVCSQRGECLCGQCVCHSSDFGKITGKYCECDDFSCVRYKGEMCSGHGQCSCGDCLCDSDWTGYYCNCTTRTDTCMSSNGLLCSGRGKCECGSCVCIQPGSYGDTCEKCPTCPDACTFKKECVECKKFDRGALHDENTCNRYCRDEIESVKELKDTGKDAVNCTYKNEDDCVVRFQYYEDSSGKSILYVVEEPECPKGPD
- Assay Overview: phage ELISA, integrin coated, anti-M13-HRP
Experimental Readout: signal (OD)

- Binder: "M13 phage pKK109 displaying MICA α3 domain with tight T-3.3 in loop 1 (designed binder, not shown: large carriers) TVPPMVNRVPRGDSDLTCRASGFYPWNITLSWRQDGVSLSHDTQQWGDVLPDGNGTYQTWVATRICQGEEQRFTCYMEHSGNHSTHPVPSGK"
  Units Text: "OD"
  Value Reported: 0.23
- Binder: "M13 phage pKK98 displaying MICA α3 domain with loop 5.3 in loop 1 (designed binder, not shown: large carriers) TVPPMVNVTHLARGDDLTYVTCRASGFYPWNITLSWRQDGVSLSHDTQQWGDVLPDGNGTYQTWVATRICQGEEQRFTCYMEHSGNHSTHPVPSGK"
  Units Text: "OD"
  Value Reported: 1.22
- Binder: "M13 phage pKK102 displaying MICA α3 domain with extended loop 5.1sp in loop 1 (designed binder, not shown: large carriers) TVPPMVNVTSGGSGGGSVTRGDTFTQSSGGSGGGVTCRASGFYPWNITLSWRQDGVSLSHDTQQWGDVLPDGNGTYQTWVATRICQGEEQRFTCYMEHSGNHSTHPVPSGK"
  Units Text: "OD"
  Value Reported: 1.02
- Binder: "M13 phage pKK104 displaying MICA α3 domain with extended loop 3.2sp in loop 3 (designed binder, not shown: large carriers) TVPPMVNVTRSEASEGNITVTCRASGFYPWNITLSWRQDGVSLSHDTQQWGDVLPDGNGTYQTWVATRISGGSGGGSTSRGDHPRTQSGGSGGGCYMEHSGNHSTHPVPSGK"
  Units Text: "OD"
  Value Reported: 0.791
